Hi there, I'd appreciate the recorded fold change of 2-Phenylethylamine concentration for every entry that follows.
# Test system: Ruminococcus gnavus DSM 108212
# Method Description: fold change of 2-Phenylethylamine concentration vs plate DMSO controls (fold change (ratio)); higher = more amine produced, active = hit call of the paper (significant change in both replicates, either direction)
# Conditions: incubation time: 27 h, anaerobic, 37 °C
Where a name gives a salt, the structure may show the parent alone.
Answer with a number only.

Query: Please indicate fold change of 2-Phenylethylamine concentration recorded for CCCCc1nc(Cl)c(CO)n1Cc1ccc(-c2ccccc2-c2nnn[nH]2)cc1 [Losartan] (20 µM)
Response: 1.06

Query: Please indicate fold change of 2-Phenylethylamine concentration recorded for COc1cc2nc(N3CCN(C(=O)C4COc5ccccc5O4)CC3)nc(N)c2cc1OC (stereo not drawn) [Doxazosin mesylate] (20 µM)
Response: 0.932

Query: Please indicate fold change of 2-Phenylethylamine concentration recorded for COc1ccc2c(c1)c(CC(=O)OCC(=O)O)c(C)n2C(=O)c1ccc(Cl)cc1 [Acemetacin] (20 µM)
Response: 0.907

====

Hi there, I'd appreciate the recorded fold change of Histamine concentration for every entry that follows.
# Tested on: Klebsiella aerogenes DSM 30053
# Method Description: fold change of Histamine concentration vs plate DMSO controls (fold change (ratio)); higher = more amine produced, active = hit call of the paper (significant change in both replicates, either direction)
# Conditions: incubation time: 27 h, anaerobic, 37 °C
Counter-ions that a name gives are not always drawn.
Answer with a number only.

Query: Please indicate fold change of Histamine concentration recorded for CCC1=C(C)CN(C(=O)NCCc2ccc(S(=O)(=O)NC(=O)N[C@H]3CC[C@H](C)CC3)cc2)C1=O [Glimepiride] (20 µM)
Response: 0.985

Query: Please indicate fold change of Histamine concentration recorded for CC(CCc1ccccc1)NCC(O)c1ccc(O)c(C(N)=O)c1 (configuration not stated) [Labetalol hydrochloride] (20 µM)
Response: 0.944

Query: Please indicate fold change of Histamine concentration recorded for OC(CNCC(O)C1CCc2cc(F)ccc2O1)C1CCc2cc(F)ccc2O1 (configuration not stated) [Nebivolol hydrochloride] (20 µM)
Response: 1.03

Query: Please indicate fold change of Histamine concentration recorded for CCN1C(=O)NC(c2ccccc2)C1=O (configuration not stated) [Ethotoin] (20 µM)
Response: 1.06

Query: Please indicate fold change of Histamine concentration recorded for CCN(CC)C(=O)c1ccc(O)c(OC)c1 [Ethamivan] (20 µM)
Response: 0.973

Query: Please indicate fold change of Histamine concentration recorded for CC(=O)OCC(=O)NCCCOc1cccc(CN2CCCCC2)c1 [Roxatidine acetate hydrochloride] (20 µM)
Response: 0.958

Query: Please indicate fold change of Histamine concentration recorded for CN1CCCN(C(c2ccccc2)c2ccc(Cl)cc2)CC1 (configuration not stated) [Homochlorcyclizine dihydrochloride] (20 µM)
Response: 0.994

Query: Please indicate fold change of Histamine concentration recorded for CC(C)NCC(O)c1ccc(O)c(O)c1 (single isomer, unassigned; (-)) [(-) Isoproterenol hydrochloride] (20 µM)
Response: 0.874

Query: Please indicate fold change of Histamine concentration recorded for CCN(CC)C(=O)/C(C#N)=C/c1cc(O)c(O)c([N+](=O)[O-])c1 [Entacapone] (20 µM)
Response: 1.01

Query: Please indicate fold change of Histamine concentration recorded for CCN(CC)CCOC(=O)C(c1ccccc1)c1ccccc1 [Adiphenine hydrochloride] (20 µM)
Response: 0.877

Query: Please indicate fold change of Histamine concentration recorded for [S] (20 µM)
Response: 0.924

Query: Please indicate fold change of Histamine concentration recorded for CC(=O)Oc1cc(C(C)C)c(OCCN(C)C)cc1C [Moxisylyte hydrochoride] (20 µM)
Response: 0.989

====

# Test system: Ruminococcus gnavus DSM 108212
# Method Description: growth (OD595) fold change vs plate DMSO controls (fold change (ratio)); higher = more growth
# Conditions: incubation time: 27 h, anaerobic, 37 °C
Label Not fulfilled if growth falls below 1; label Fulfilled in every other case.

Query: Dear colleague, could you confirm whether CS(=O)(=O)c1ccc(C2=C(c3ccccc3)C(=O)OC2)cc1 [Rofecoxib] (20 µM) has growth at or above 1?
Response: Fulfilled

Query: Dear colleague, could you confirm whether CCOC(=O)C1=C[C@]2(CC)CCCN3CCc4c(n1c1ccccc41)[C@@H]32 [Vinpocetine] (20 µM) has growth at or above 1?
Response: Fulfilled

Query: Dear colleague, could you confirm whether Cc1c(Nc2ncccc2C(=O)O)cccc1C(F)(F)F [Flunixin meglumine] (20 µM) has growth at or above 1?
Response: Fulfilled

Query: Dear colleague, could you confirm whether C#C[C@]1(O)CC[C@H]2[C@@H]3CCC4=Cc5oncc5C[C@]4(C)[C@H]3CC[C@@]21C [Danazol] (20 µM) has growth at or above 1?
Response: Not fulfilled

Query: Dear colleague, could you confirm whether Cn1cc([S+](C)[O-])c(=O)c2ccc(F)cc21 (centres undefined) [Flosequinan] (20 µM) has growth at or above 1?
Response: Fulfilled

Query: Dear colleague, could you confirm whether CC(C)COC(=O)OCN1C(=O)CN(CCN2CC(=O)N(COC(=O)OCC(C)C)C(=O)C2)CC1=O [Sobuzoxane] (20 µM) has growth at or above 1?
Response: Fulfilled

====

Hi there, I'd appreciate the recorded fold change of Tryptamine concentration for every entry that follows.
# Tested on: Ruminococcus gnavus DSM 108212
# Method Description: fold change of Tryptamine concentration vs plate DMSO controls (fold change (ratio)); higher = more amine produced, active = hit call of the paper (significant change in both replicates, either direction)
# Conditions: incubation time: 27 h, anaerobic, 37 °C
Structures can show the parent of a compound that is named as a salt.
Answer with a number only.

Query: Please indicate fold change of Tryptamine concentration recorded for CC(C)(c1ccc(O)cc1)c1ccc(O)cc1 [Bisphenol A] (20 µM)
Response: 0.976

Query: Please indicate fold change of Tryptamine concentration recorded for O=c1oc2cc(O)ccc2s1 [Tioxolone] (20 µM)
Response: 0.987

Query: Please indicate fold change of Tryptamine concentration recorded for CC[N+](CC)(CC(=O)Nc1c(C)cccc1C)Cc1ccccc1 [Denatonium benzoate] (20 µM)
Response: 0.99

Query: Please indicate fold change of Tryptamine concentration recorded for COc1ccc(CCN(C)CCCC(C#N)(c2ccc(OC)c(OC)c2)C(C)C)cc1OC (stereo not given) [Verapamil hydrochloride] (20 µM)
Response: 0.992

Query: Please indicate fold change of Tryptamine concentration recorded for CN(C)CCc1c[nH]c2ccc(Cn3cncn3)cc12 [Rizatriptan benzoate] (20 µM)
Response: 1.01

====

# Test system: Ruminococcus gnavus DSM 108212
# Method Description: growth (OD595) fold change vs plate DMSO controls (fold change (ratio)); higher = more growth
# Conditions: incubation time: 27 h, anaerobic, 37 °C
Where a name gives a salt, the structure may show the parent alone.
Hi there, I'd appreciate the recorded growth for every entry that follows.
Answer with a number only.

Query: Please indicate growth recorded for O=C(O)COC(=O)Cc1ccccc1Nc1c(Cl)cccc1Cl [Aceclofenac] (20 µM)
Response: 0.993

Query: Please indicate growth recorded for CN(Cc1cc(Br)cc(Br)c1N)C1CCCCC1 [Bromhexine hydrochloride] (20 µM)
Response: 0.937

Query: Please indicate growth recorded for C=C1c2cccc(O)c2C(O)=C2C(=O)[C@]3(O)C(O)=C(C(N)=O)C(=O)[C@@H](N(C)C)[C@@H]3[C@@H](O)[C@H]12 [Methacycline hydrochloride] (20 µM)
Response: 0.836

Query: Please indicate growth recorded for CC(CN1c2ccccc2Sc2ccccc21)N(C)C (stereo not drawn) [Promethazine hydrochloride] (20 µM)
Response: 0.948

Query: Please indicate growth recorded for CN/C(=N\CCSCc1nc[nH]c1C)NC#N [Cimetidine] (20 µM)
Response: 1.18

Query: Please indicate growth recorded for Nc1nc2[nH]cnc2c(=S)[nH]1 [Tioguanine] (20 µM)
Response: 0.899

Query: Please indicate growth recorded for c1ccc(CN(CC2=NCCN2)c2ccccc2)cc1 [Antazoline hydrochloride] (20 µM)
Response: 0.834

Query: Please indicate growth recorded for CC1=C(/C=C/C(C)=C/C=C/C(C)=C/C(=O)O)C(C)(C)CCC1 [Retinoic acid] (20 µM)
Response: 1.04

====

# Test system: Escherichia coli IAI1
# Method Description: fold change of Cadaverine concentration vs plate DMSO controls (fold change (ratio)); higher = more amine produced, active = hit call of the paper (significant change in both replicates, either direction);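 for the amine columns active = adjusted P below 0.05 in both replicates with a change the same way and a mean fold change under 0.8 or over 1.25; inactive = the rest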
# Conditions: incubation time: 27 h, anaerobic, 37 °C
Where a name gives a salt, the structure may show the parent alone.
In this exercise, the only acceptable responses are yes (1) (active), no (0) (inactive)

Query: Outcome logged for Nc1nc(F)nc2c1ncn2[C@@H]1O[C@H](CO)[C@@H](O)[C@@H]1O [Fludarabine] (20 µM) in this assay:
Response: no (0)

Query: Outcome logged for CCCCCN(CCCCC)C(=O)C(CCC(=O)O)NC(=O)c1ccc(Cl)c(Cl)c1 (stereo unspecified) [Lorglumide sodium salt] (20 µM) in this assay:
Response: no (0)

Query: Outcome logged for COc1ccc2cc([C@H](C)C(=O)O)ccc2c1 [(S)-Naproxen] (20 µM) in this assay:
Response: no (0)

Query: Outcome logged for O=C(NCCO[N+](=O)[O-])c1cccnc1 [Nicorandil] (20 µM) in this assay:
Response: no (0)

Query: Outcome logged for O=C1CN(/N=C/c2ccc([N+](=O)[O-])o2)C(=O)N1 [Nitrofurantoin] (20 µM) in this assay:
Response: yes (1)

Query: Outcome logged for COc1cc(C(=O)NCc2ccc(OCCN(C)C)cc2)cc(OC)c1OC [Trimethobenzamide hydrochloride] (20 µM) in this assay:
Response: no (0)

Query: Outcome logged for NC(=O)Cc1cccc(C(=O)c2ccccc2)c1N [Nepafenac] (20 µM) in this assay:
Response: no (0)

Query: Outcome logged for CC(C)CN(C[C@@H](O)[C@H](Cc1ccccc1)NC(=O)O[C@H]1CCOC1)S(=O)(=O)c1ccc(N)cc1 [Amprenavir] (20 µM) in this assay:
Response: no (0)

Query: Outcome logged for Nc1nc(Cl)nc2c1ncn2[C@H]1C[C@H](O)[C@@H](CO)O1 [Cladribine] (20 µM) in this assay:
Response: no (0)

Query: Outcome logged for CCCC(=O)OCOC(=O)C1=C(C)NC(C)=C(C(=O)OC)C1c1cccc(Cl)c1Cl (stereo unspecified) [Clevidipine] (20 µM) in this assay:
Response: no (0)

Query: Outcome logged for COC(=O)Nc1nc2cc(C(=O)c3cccs3)ccc2[nH]1 [Nocodazole] (20 µM) in this assay:
Response: no (0)

Query: Outcome logged for CC(C)OC(=O)CCC/C=C\C[C@@H]1[C@@H](CC[C@@H](O)CCc2ccccc2)[C@H](O)C[C@@H]1O [Latanoprost] (20 µM) in this assay:
Response: no (0)

Query: Outcome logged for O=C1CC[C@@H](C(=O)N2CSC[C@H]2C(=O)O)N1 [Pidotimod] (20 µM) in this assay:
Response: no (0)

Query: Outcome logged for CCN1CCCC(OC(=O)C(c2ccccc2)c2ccccc2)C1 (stereo unspecified) [Piperidolate hydrochloride] (20 µM) in this assay:
Response: no (0)

Query: Outcome logged for CNC(=O)OCc1cccc(COC(=O)NC)n1 [Pyricarbate] (20 µM) in this assay:
Response: no (0)

Query: Outcome logged for Cc1c(F)c(N2CCNC(C)C2)cc2c1c(=O)c(C(=O)O)cn2C1CC1 (stereo unspecified) [Grepafloxacin] (20 µM) in this assay:
Response: yes (1)
